# Experimental details: Oral bioavailability in Sprague-Dawley rat at 10 mg/kg
# Format: ADME, organism-based
# Experimental parameters: in vivo
Quantity measured: bioavailability (%)
A number alone suffices; assume %.

## Input Give recorded bioavailability. CNc1nc(Nc2ccc(C)c(N)c2)ncc1C(=O)Nc1cc(NC(=O)c2cccc(C(F)(F)F)c2)ccc1C
## Output 24.2

###

For each of the compounds below, state its GI50 at 72 h.
# Experimental details: Antiproliferative activity against […] CHL cells assessed as cell viability after 72 hrs by CellTiter-Glo or CCK-8 assay
# Format: cell-based, Cricetulus griseus
# Experimental parameters: chinese hamster
Record the value in µM, omitting the unit from your answer.

## Input Tell us which GI50 at 72 h value is on record for Cc1cn(-c2cc(NC(=O)c3ccc(C)c(Nc4nccc(-c5cccnc5)n4)c3)cc(C(F)(F)F)c2)cn1
## Output 4.2

## Input For the compound Cc1nc(Nc2ncc(C(=O)Nc3c(C)cccc3Cl)s2)cc(N2CCN(CCO)CC2)n1 , report GI50 at 72 h.
## Output 0.27

###

# Study target: UniProt:P12931
# Sequence (P12931 2-536 limits assumed): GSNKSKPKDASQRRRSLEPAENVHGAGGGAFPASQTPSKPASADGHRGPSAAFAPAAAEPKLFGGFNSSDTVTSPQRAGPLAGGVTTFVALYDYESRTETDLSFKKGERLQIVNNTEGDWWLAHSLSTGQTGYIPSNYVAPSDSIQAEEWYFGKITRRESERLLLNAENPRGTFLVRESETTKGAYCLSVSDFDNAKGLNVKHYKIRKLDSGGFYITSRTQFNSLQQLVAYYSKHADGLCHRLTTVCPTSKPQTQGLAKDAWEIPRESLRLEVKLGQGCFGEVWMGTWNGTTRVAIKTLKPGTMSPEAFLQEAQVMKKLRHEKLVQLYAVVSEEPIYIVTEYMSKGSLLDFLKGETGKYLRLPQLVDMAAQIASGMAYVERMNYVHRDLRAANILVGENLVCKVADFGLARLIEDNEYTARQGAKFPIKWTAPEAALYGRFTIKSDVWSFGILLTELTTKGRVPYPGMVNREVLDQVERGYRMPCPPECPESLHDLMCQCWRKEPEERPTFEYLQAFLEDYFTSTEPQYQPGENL
# Experimental details: Inhibition of full length recombinant human C-terminal His-tagged SRC expressed in Baculovirus expression system
Quantity measured: pIC50
API: returns pIC50 as number; meaning -log10 of concentration in mol/L.

## Input Specify pIC50 for CNc1nc(Nc2ccc(C)c(N)c2)ncc1C(=O)Nc1cc(NC(=O)c2cccc(C(F)(F)F)c2)ccc1C and stop.
## Output 7.05

###

# Experimental details: Half life in Sprague-Dawley rat at 1 mg/kg, iv
# Assay type: ADME, organism-based
# Experimental parameters: in vivo
Quantity measured: half-life (h)
Could you give me the number in h? Just the number is fine.

## Input // Input: CNc1nc(Nc2ccc(C)c(N)c2)ncc1C(=O)Nc1cc(NC(=O)c2cccc(C(F)(F)F)c2)ccc1C . Output its half-life only.
## Output 2.82

###

# Experimental details: Antiproliferative activity against mouse BA/F3 cells assessed as cell viability after 72 hrs by CellTiter-Glo or CCK-8 assay
# Assay type: cell-based, BaF3
Quantity measured: GI50 at 72 h

## Input Given CNc1nc(Nc2ccc(C)c([N+](=O)[O-])c2)ncc1C(=O)Nc1cc(NC(=O)c2ccccc2OC)ccc1C , respond with its GI50 at 72 h.
## Output > 10 µM

## Input Report measured GI50 at 72 h; entry is Cc1ccc(NC(=O)c2cccc(C(F)(F)F)c2)cc1NC(=O)c1cnc(Nc2ccc(C)c([N+](=O)[O-])c2)nc1N(C)C
## Output > 10 µM

## Input // fetch GI50 at 72 h given entry Cc1ccc(NC(=O)c2cccc(C(F)(F)F)c2)cc1N1Cc2cnc(OC3CCN(C(=O)OC(C)(C)C)CC3)nc2N(C)C1=O
## Output > 10 µM

## Input Please list GI50 at 72 h recorded for the compound Cc1ccc(Oc2ncc3c(n2)N(C)C(=O)N(c2cc(NC(=O)c4cccc(C(F)(F)F)c4)ccc2C)C3)cc1N
## Output > 10 µM

## Input Could you please provide reported GI50 at 72 h for CNc1nc(Nc2ccc(C)c([N+](=O)[O-])c2)ncc1C(=O)Nc1cc(NC(=O)c2ccc3c(c2)OCO3)ccc1C ? Thanks!
## Output > 10 µM

## Input Give the reported value of GI50 at 72 h for this record: CNc1nc(Nc2ccc(C)c([N+](=O)[O-])c2)ncc1C(=O)Nc1cc(NC(=O)c2cc(OC)cc(OC)c2)ccc1C
## Output > 10 µM

## Input Please give measured GI50 at 72 h of the following entry: CNc1nc(Nc2ccc(C)c(N)c2)ncc1C(=O)Nc1cc(NC(=O)c2ccccc2OC)ccc1C
## Output > 10 µM

###

# Study target: Transcription factor ETV6/Tyrosine-protein kinase ABL1 (Homo sapiens) (UniProt P00519+P41212)
# Sequence (P00519 whole entry, looked up): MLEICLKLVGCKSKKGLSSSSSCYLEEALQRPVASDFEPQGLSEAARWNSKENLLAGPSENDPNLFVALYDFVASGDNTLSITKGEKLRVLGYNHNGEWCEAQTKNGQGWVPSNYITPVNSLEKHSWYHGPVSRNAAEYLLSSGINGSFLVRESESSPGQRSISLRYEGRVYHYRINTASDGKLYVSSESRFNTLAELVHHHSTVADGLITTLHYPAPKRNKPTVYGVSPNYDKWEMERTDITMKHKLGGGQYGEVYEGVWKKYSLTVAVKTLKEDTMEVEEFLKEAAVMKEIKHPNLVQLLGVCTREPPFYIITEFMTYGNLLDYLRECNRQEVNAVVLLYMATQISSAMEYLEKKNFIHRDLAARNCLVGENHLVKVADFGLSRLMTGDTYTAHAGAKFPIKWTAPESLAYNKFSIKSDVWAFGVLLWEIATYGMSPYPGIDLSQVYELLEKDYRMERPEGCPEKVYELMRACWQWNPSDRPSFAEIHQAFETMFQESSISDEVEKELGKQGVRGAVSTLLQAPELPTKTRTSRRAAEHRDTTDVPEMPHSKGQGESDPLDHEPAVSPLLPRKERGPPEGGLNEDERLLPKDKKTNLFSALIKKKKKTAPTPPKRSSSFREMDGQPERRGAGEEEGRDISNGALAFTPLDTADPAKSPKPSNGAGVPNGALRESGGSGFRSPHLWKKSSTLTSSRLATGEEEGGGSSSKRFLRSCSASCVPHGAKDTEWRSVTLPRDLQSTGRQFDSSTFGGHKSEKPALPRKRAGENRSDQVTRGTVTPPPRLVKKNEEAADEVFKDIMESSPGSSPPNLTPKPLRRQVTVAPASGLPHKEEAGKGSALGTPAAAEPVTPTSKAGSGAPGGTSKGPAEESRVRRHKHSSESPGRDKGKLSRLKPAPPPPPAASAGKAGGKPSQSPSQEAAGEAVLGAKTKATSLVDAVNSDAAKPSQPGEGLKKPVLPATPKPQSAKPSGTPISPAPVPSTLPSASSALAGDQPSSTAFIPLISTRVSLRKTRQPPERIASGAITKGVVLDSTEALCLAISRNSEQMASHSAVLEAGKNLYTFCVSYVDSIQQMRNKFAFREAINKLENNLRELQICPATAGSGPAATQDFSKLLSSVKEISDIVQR
# Sequence (P41212 whole entry, looked up): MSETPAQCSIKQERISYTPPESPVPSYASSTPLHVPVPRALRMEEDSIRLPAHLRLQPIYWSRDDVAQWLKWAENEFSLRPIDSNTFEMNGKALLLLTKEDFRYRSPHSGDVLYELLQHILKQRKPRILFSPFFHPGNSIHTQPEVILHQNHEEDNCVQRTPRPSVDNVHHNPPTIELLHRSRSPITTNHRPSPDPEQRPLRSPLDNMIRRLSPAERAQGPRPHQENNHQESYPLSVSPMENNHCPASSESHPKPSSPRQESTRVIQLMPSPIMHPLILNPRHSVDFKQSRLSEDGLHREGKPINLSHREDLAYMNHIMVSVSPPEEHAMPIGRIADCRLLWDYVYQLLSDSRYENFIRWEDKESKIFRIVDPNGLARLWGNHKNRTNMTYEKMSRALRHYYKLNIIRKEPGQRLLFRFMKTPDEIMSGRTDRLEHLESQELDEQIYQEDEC
# Experimental parameters: BaF3
# Description: Inhibition of Tel-ABL (unknown origin) expressed in mouse BA/F3 cells assessed as cell growth inhibition after 72 hrs by CellTiter-Glo or CCK-8 assay
Label key: 1.0 means GI50 under 1 µM; 0.0 means GI50 of 1 µM or more.

## Input is_below(GI50, 1 µM) for Cc1ccc(Nc2ncc(C(=O)Nc3cc(NC(=O)c4cccc(C(F)(F)F)c4)ccc3C)cn2)cc1N ?
## Output 1.0

## Input Quick check: GI50 of Cc1ccc(NC(=O)c2cccc(C(F)(F)F)c2)cc1NC(=O)c1cnc(Nc2ccc(C)c([N+](=O)[O-])c2)nc1 under 1 µM?
## Output 0.0

## Input Problem: For the compound CNc1nc(Nc2ccc(C)c([N+](=O)[O-])c2)ncc1C(=O)Nc1cc(NC(=O)c2ccc(OC)cc2)ccc1C , is GI50 under 1 µM?
## Output 0.0

## Input Check if GI50 falls below 1 µM for CNc1nc(Nc2ccc(C)c(N)c2)ncc1C(=O)Nc1cc(NC(=O)c2ccc3c(c2)OCCO3)ccc1C .
## Output 1.0

## Input In plain terms, does CNc1nc(Nc2ccc(C)c([N+](=O)[O-])c2)ncc1C(=O)Nc1cc(NC(=O)c2ccc3c(c2)OCO3)ccc1C come in under 1 µM for GI50?
## Output 0.0

## Input Is GI50 strictly under 1 µM for the entry Cc1ccc(NC(=O)c2cccc(C(F)(F)F)c2)cc1N1Cc2cnc(NC3CCN(C(=O)OC(C)(C)C)CC3)nc2N(C)C1=O ?
## Output 1.0

## Input Below 1 µM on GI50? Entry CNc1nc(Nc2ccc(C)c([N+](=O)[O-])c2)ncc1C(=O)Nc1cc(NC(=O)c2ccccc2OC)ccc1C
## Output 0.0

## Input is_below(GI50, 1 µM) for Cc1ccc(NC(=O)c2cccc(C(F)(F)F)c2)cc1N1Cc2cnc(OC3CCNCC3)nc2N(C)C1=O ?
## Output 0.0

## Input Field: below-cutoff. Rule: recorded GI50 strictly less than 1 µM. Subject: Cc1ccc(Nc2ncc3c(n2)N(C)C(=O)N(c2cc(NC(=O)c4cccc(C(F)(F)F)c4)ccc2C)C3)cc1
## Output 1.0

## Input Regarding CNc1nc(Nc2ccc(C)c(N)c2)ncc1C(=O)Nc1cc(NC(=O)c2ccc(OC)c(OC)c2)ccc1C , kindly confirm whether its GI50 is beneath 1 µM.
## Output 0.0

## Input API: query returns whether the compound falls strictly under 1 µM in GI50. Query: Cc1cc(C)cc(C(=O)Nc2ccc(C)c(N3Cc4cnc(Nc5ccc(C)c(N)c5)nc4N(C)C3=O)c2)c1
## Output 1.0

## Input Consider the compound Cc1ccc(NC(=O)c2cccc(C(F)(F)F)c2)cc1NC(=O)c1cnc(Nc2ccc(C)c([N+](=O)[O-])c2)nc1N(C)C . Is its GI50 strictly less than 1 µM?
## Output 0.0

## Input Regarding Cc1ccc(NC(=O)c2cccc(C(F)(F)F)c2)cc1N1Cc2cnc(NC3CCNCC3)nc2N(C)C1=O , kindly confirm whether its GI50 is beneath 1 µM.
## Output 1.0

## Input Say whether its GI50 is strictly beneath 1 µM. Entry: CNc1nc(Nc2ccc(C)c(N)c2)ncc1C(=O)Nc1cc(NC(=O)c2cccc(OC)c2)ccc1C
## Output 1.0

Values were extracted from ChEMBL document CHEMBL3779840.
